target: Adenosine receptor A2b (Homo sapiens) (UniProt P29275); experiment: Displacement of [3H]PSB-603 from human A2B receptor expressed in CHO cell membrane at 1 uM relative to control; assay type: cell membranes
Sequence (P29275 whole entry): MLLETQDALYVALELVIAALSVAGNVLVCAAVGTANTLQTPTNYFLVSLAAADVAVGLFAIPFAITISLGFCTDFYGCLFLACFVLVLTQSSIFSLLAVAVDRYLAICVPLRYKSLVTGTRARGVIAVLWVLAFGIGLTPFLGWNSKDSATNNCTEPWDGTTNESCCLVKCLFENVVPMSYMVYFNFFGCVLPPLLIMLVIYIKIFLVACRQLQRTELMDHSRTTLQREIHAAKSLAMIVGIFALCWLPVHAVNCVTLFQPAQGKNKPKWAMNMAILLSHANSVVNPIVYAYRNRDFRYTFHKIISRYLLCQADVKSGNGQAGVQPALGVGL
Property name: Activity (%)

[[record]]
smiles_string = "Cn1c(=O)c2c(nc3n2CCN(Cc2csc(-c4ccc(Cl)cc4)n2)C3)n(C)c1=O"
measured_target = "Adenosine receptor A2b (Homo sapiens) (UniProt P29275)"
recorded_measurement = 17

[[record]]
smiles_string = "Cn1c(=O)c2c(nc3n2CCN(CCc2ccccc2Br)C3)n(C)c1=O"
measured_target = "Adenosine receptor A2b (Homo sapiens) (UniProt P29275)"
recorded_measurement = 24

[[record]]
smiles_string = "Cn1c(=O)c2c(nc3n2CCN(CCOc2cccc(F)c2)C3)n(C)c1=O"
measured_target = "Adenosine receptor A2b (Homo sapiens) (UniProt P29275)"
recorded_measurement = 11

[[record]]
smiles_string = "Cn1c(=O)c2c(nc3n2CCN(Cc2cn(-c4ccc(Cl)cc4)nn2)C3)n(C)c1=O"
measured_target = "Adenosine receptor A2b (Homo sapiens) (UniProt P29275)"
recorded_measurement = 27


----------
Biological target: Adenosine receptor A1 (Rattus norvegicus) (UniProt P25099)
Sequence (whole entry): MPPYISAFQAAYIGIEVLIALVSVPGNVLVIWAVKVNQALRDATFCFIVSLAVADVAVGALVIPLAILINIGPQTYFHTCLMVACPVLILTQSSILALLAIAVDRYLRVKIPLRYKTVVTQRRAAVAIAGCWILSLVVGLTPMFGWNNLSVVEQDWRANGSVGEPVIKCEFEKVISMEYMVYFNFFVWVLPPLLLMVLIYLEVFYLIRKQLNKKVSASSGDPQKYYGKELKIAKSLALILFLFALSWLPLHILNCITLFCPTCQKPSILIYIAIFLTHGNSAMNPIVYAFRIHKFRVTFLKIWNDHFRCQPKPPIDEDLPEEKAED
Assay: Displacement of [3H]CCPA from A1 receptor in rat brain cortex membranes at 1.5 uM by liquid scintillation counting method
Assay type: cell membranes
Quick list: Activity per entry.
Property name: Activity (%)

[[record]]
molecule = "Cc1sc(-c2ccc(C(F)(F)F)cc2)nc1CN1CCn2c(nc3c2c(=O)n(C)c(=O)n3C)C1"
measured_target = "Adenosine receptor A1 (Rattus norvegicus) (UniProt P25099)"
property_name = "Activity"
recorded_measurement = 25

[[record]]
molecule = "Cn1c(=O)c2c(nc3n2CCN(CCOc2ccccc2F)C3)n(C)c1=O"
measured_target = "Adenosine receptor A1 (Rattus norvegicus) (UniProt P25099)"
property_name = "Activity"
recorded_measurement = 5

[[record]]
molecule = "Cn1c(=O)c2c(nc3n2CCN(CCc2cccs2)C3)n(C)c1=O"
measured_target = "Adenosine receptor A1 (Rattus norvegicus) (UniProt P25099)"
property_name = "Activity"
recorded_measurement = 15

[[record]]
molecule = "Cn1c(=O)c2c(nc3n2CCN(c2cccc(F)c2)C3)n(C)c1=O"
measured_target = "Adenosine receptor A1 (Rattus norvegicus) (UniProt P25099)"
property_name = "Activity"
recorded_measurement = 20

[[record]]
molecule = "Cn1c(=O)c2c(nc3n2CCN(CCc2cccc(C(F)(F)F)c2)C3)n(C)c1=O"
measured_target = "Adenosine receptor A1 (Rattus norvegicus) (UniProt P25099)"
property_name = "Activity"
recorded_measurement = 6

[[record]]
molecule = "Cn1c(=O)c2c(nc3n2CCN(Cc2cn(-c4ccc(Cl)cc4)nn2)C3)n(C)c1=O"
measured_target = "Adenosine receptor A1 (Rattus norvegicus) (UniProt P25099)"
property_name = "Activity"
recorded_measurement = 36

[[record]]
molecule = "COc1ccc(CCN2CCn3c(nc4c3c(=O)n(C)c(=O)n4C)C2)cc1OC"
measured_target = "Adenosine receptor A1 (Rattus norvegicus) (UniProt P25099)"
property_name = "Activity"
recorded_measurement = -2

[[record]]
molecule = "Cn1c(=O)c2c(nc3n2CCN(CCc2ccccc2F)C3)n(C)c1=O"
measured_target = "Adenosine receptor A1 (Rattus norvegicus) (UniProt P25099)"
property_name = "Activity"
recorded_measurement = 24

[[record]]
molecule = "Cn1c(=O)c2c(nc3n2CCN(CCCn2ccnc2)C3)n(C)c1=O"
measured_target = "Adenosine receptor A1 (Rattus norvegicus) (UniProt P25099)"
property_name = "Activity"
recorded_measurement = 13

[[record]]
molecule = "Cn1c(=O)c2c(nc3n2CCN(CC(O)c2ccccc2)C3)n(C)c1=O (stereo unspecified)"
measured_target = "Adenosine receptor A1 (Rattus norvegicus) (UniProt P25099)"
property_name = "Activity"
recorded_measurement = 7

[[record]]
molecule = "Cn1c(=O)c2c(nc3n2CCN(c2cccc(Cl)c2)C3)n(C)c1=O"
measured_target = "Adenosine receptor A1 (Rattus norvegicus) (UniProt P25099)"
property_name = "Activity"
recorded_measurement = 37

[[record]]
molecule = "Cn1c(=O)c2c(nc3n2CCN(C2Cc4ccccc4C2)C3)n(C)c1=O"
measured_target = "Adenosine receptor A1 (Rattus norvegicus) (UniProt P25099)"
property_name = "Activity"
recorded_measurement = 12

[[record]]
molecule = "Cn1c(=O)c2c(nc3n2CCN(CCCn2cccc2)C3)n(C)c1=O"
measured_target = "Adenosine receptor A1 (Rattus norvegicus) (UniProt P25099)"
property_name = "Activity"
recorded_measurement = -4

[[record]]
molecule = "Cn1c(=O)c2c(nc3n2CCN(CCc2cccc(F)c2)C3)n(C)c1=O"
measured_target = "Adenosine receptor A1 (Rattus norvegicus) (UniProt P25099)"
property_name = "Activity"
recorded_measurement = 6

[[record]]
molecule = "Cn1c(=O)c2c(nc3n2CCN(Cc2nocc2-c2ccccc2)C3)n(C)c1=O"
measured_target = "Adenosine receptor A1 (Rattus norvegicus) (UniProt P25099)"
property_name = "Activity"
recorded_measurement = 21

[[record]]
molecule = "Cn1c(=O)c2c(nc3n2CCN(CCOc2ccccc2)C3)n(C)c1=O"
measured_target = "Adenosine receptor A1 (Rattus norvegicus) (UniProt P25099)"
property_name = "Activity"
recorded_measurement = -1

[[record]]
molecule = "COc1cccc(C#CCN2CCn3c(nc4c3c(=O)n(C)c(=O)n4C)C2)c1"
measured_target = "Adenosine receptor A1 (Rattus norvegicus) (UniProt P25099)"
property_name = "Activity"
recorded_measurement = 17

[[record]]
molecule = "Cn1c(=O)c2c(nc3n2CCN(CCc2ccc(F)c(F)c2)C3)n(C)c1=O"
measured_target = "Adenosine receptor A1 (Rattus norvegicus) (UniProt P25099)"
property_name = "Activity"
recorded_measurement = 10

[[record]]
molecule = "CC(CN1CCn2c(nc3c2c(=O)n(C)c(=O)n3C)C1)c1ccccc1 (stereo unspecified)"
measured_target = "Adenosine receptor A1 (Rattus norvegicus) (UniProt P25099)"
property_name = "Activity"
recorded_measurement = 27

[[record]]
molecule = "Cn1c(=O)c2c(nc3n2CCN(CCc2ccccc2)C3)n(C)c1=O"
measured_target = "Adenosine receptor A1 (Rattus norvegicus) (UniProt P25099)"
property_name = "Activity"
recorded_measurement = 9

[[record]]
molecule = "Cn1c(=O)c2c(nc3n2CCN(CC#Cc2ccc(Cl)c(Cl)c2)C3)n(C)c1=O"
measured_target = "Adenosine receptor A1 (Rattus norvegicus) (UniProt P25099)"
property_name = "Activity"
recorded_measurement = 29

